Biological target: FGFR4 (Homo sapiens (Human), UniProt P22455)
Sequence (P22455 22-802): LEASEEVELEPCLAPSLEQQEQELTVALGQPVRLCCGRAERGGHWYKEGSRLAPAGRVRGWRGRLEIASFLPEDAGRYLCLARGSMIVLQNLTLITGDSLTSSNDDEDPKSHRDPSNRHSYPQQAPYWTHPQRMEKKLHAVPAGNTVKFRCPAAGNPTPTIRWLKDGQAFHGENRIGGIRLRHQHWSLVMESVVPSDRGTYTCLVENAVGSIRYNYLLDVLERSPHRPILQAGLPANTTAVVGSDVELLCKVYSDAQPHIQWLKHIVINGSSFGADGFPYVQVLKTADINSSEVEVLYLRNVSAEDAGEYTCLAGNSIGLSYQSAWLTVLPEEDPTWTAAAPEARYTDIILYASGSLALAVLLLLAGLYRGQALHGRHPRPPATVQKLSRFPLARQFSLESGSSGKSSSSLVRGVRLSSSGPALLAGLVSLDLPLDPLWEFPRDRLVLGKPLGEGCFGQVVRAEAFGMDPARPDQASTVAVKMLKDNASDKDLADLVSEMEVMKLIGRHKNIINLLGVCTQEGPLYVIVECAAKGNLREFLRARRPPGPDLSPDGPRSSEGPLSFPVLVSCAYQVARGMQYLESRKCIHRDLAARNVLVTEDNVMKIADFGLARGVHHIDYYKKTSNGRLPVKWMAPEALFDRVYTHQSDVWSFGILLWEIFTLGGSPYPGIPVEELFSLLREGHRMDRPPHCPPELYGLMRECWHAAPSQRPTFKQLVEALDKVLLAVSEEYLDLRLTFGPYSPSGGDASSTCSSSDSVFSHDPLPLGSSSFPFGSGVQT
Assay: FGFR Enzymatic Assay (FRET peptide phosphorylation), FGFR4
Conditions: IC50 ratio showing FGFR4 selectivity; pre-incubated for 5 to 10 minutes
measured-property: FGFR1/FGFR4 IC50 ratio

compound: C=CC(=O)Nc1cnc(C)c(-c2cc3c(cn2)CN(c2c(F)c(OC)cc(OC)c2F)C(=O)C32CC2)c1 [Example 7]
measured-property: FGFR1/FGFR4 IC50 ratio
measured-value: >100

compound: C=CC(=O)Nc1ccc(C#N)c(-c2cc3c(cn2)CN(c2c(F)c(OC)cc(OC)c2F)C(=O)C32CC2)c1 [Example 5]
measured-property: FGFR1/FGFR4 IC50 ratio
measured-value: >100

Name the recorded FGFR1/FGFR4 IC50 ratio of the compound listed here: C=CC(=O)Nc1cc(CN2CCOCC2)cc(-c2cc3c(cn2)CN(c2c(F)c(OC)cc(OC)c2F)C(=O)C32CC2)c1 [Example 11]
>100

Name the recorded FGFR1/FGFR4 IC50 ratio of the compound listed here: C=CC(=O)Nc1ccc(C)c(-c2cc3c(cn2)CN(c2c(F)c(OC)cc(OC)c2F)C(=O)C32CC2)c1 [Example 2]
>100

Name the recorded FGFR1/FGFR4 IC50 ratio of the compound listed here: C=CC(=O)N1CCCC(c2cc3c(cn2)CN(c2c(F)c(OC)cc(OC)c2F)C(=O)C32CC2)C1 (centres unmarked) [Example 8]
>5

Name the recorded FGFR1/FGFR4 IC50 ratio of the compound listed here: C=CC(=O)Nc1cc(-c2cc3c(cn2)CN(c2c(F)c(OC)cc(OC)c2F)C(=O)C32CC2)c(C)cc1F [Example 6]
>100

Name the recorded FGFR1/FGFR4 IC50 ratio of the compound listed here: C=CC(=O)Nc1cc(-c2cc3c(cn2)CN(c2c(F)c(OC)cc(OC)c2F)C(=O)C32CC2)cc(N2CCOCC2)c1 [Example 10]
>100

Name the recorded FGFR1/FGFR4 IC50 ratio of the compound listed here: C=CC(=O)Nc1cc(-c2cc3c(cn2)CN(c2c(F)c(OC)cc(OC)c2F)C(=O)C32CC2)ccc1CN1CCOCC1 [Example 12]
>10

###

FGFR1/FGFR4 IC50 ratio reference
Molecular target: FGFR4 (Homo sapiens (Human))
Assay: FGFR Enzymatic Assay (FRET peptide phosphorylation), FGFR4
Settings: IC50 ratio showing FGFR4 selectivity; pre-incubated for 4 hours

Name the recorded FGFR1/FGFR4 IC50 ratio of the compound listed here: "C=CC(=O)Nc1cn(CCN2CCOCC2)nc1-c1cc2c(cn1)CN(c1c(F)c(OC)cc(OC)c1F)C(=O)C21CC1"
>100

Name the recorded FGFR1/FGFR4 IC50 ratio of the compound listed here: "C=CC(=O)Nc1ccc(C)c(-c2ncc3c(n2)C2(CC2)C(=O)N(c2c(F)c(OC)cc(OC)c2F)C3)c1"
>100

Name the recorded FGFR1/FGFR4 IC50 ratio of the compound listed here: "C=CC(=O)Nc1cn(CC(=O)N(C)C)nc1-c1cc2c(cn1)CN(c1c(F)c(OC)cc(OC)c1F)C(=O)C21CC1"
>100

###

FGFR3/FGFR4 IC50 ratio reference
Target: FGFR4 (Homo sapiens (Human), UniProt P22455)
Test: FGFR Enzymatic Assay (FRET peptide phosphorylation), FGFR4
Settings: IC50 ratio showing FGFR4 selectivity; pre-incubated for 4 hours

Record excerpt, results attached:
compound: C=CC(=O)Nc1cnn(C[C@@H]2CCOC2)c1-c1cc2c(cn1)CN(c1c(F)c(OC)cc(OC)c1F)C(=O)C21CC1 [Example 28]
system-tested: FGFR4 (Homo sapiens (Human), UniProt P22455)
FGFR3/FGFR4 IC50 ratio: >100
//
compound: C=CC(=O)Nc1cc(-c2cc3c(cn2)CN(c2c(F)c(OC)cc(OC)c2F)C(=O)C32CC2)ccc1CN1CCOCC1 [Example 12]
system-tested: FGFR4 (Homo sapiens (Human), UniProt P22455)
FGFR3/FGFR4 IC50 ratio: >10

Okay, next one:
Name the recorded FGFR3/FGFR4 IC50 ratio of the compound listed here: C=CC(=O)Nc1ccc(C)c(-c2cc3c(cn2)CN(c2c(F)c(OC)cc(OC)c2F)C(=O)C32CC2)c1 [Example 2]
>100
